# assay text: Cytotoxicity against human Chang cells by MTT assay
# Format: toxicity, cell-based
Please map values of IC50 to classes as shown: low = under 600 nM, moderate = from 600 nM up to 4000 nM, high = 4000 nM and over

Which of the defined bands does the recorded IC50 of COc1ccc(N2C(=O)[C@@H](OC)[C@H]2c2ccc(Cl)cc2)cc1 (relative stereo) sit within?
moderate

// query: COc1ccc([C@@H]2[C@H](OC)C(=O)N2c2ccc(OC)cc2)cc1 (relative stereo)
high

// query: O=C1C(Oc2ccccc2)C(c2ccc([N+](=O)[O-])cc2)N1c1nc2ccccc2s1 (racemic)
low

// query: COc1ccc(N2C(=O)[C@@H](OC)[C@H]2c2ccccc2[N+](=O)[O-])cc1 (relative stereo)
high

// query: O=C1C(Oc2ccccc2)C(c2ccco2)N1c1nc2ccccc2s1 (racemic)
low

// query: COc1ccc(N2C(=O)[C@@H](Oc3ccccc3)[C@H]2c2ccc([N+](=O)[O-])cc2)cc1 (relative stereo)
moderate

// query: O=C1C(Oc2ccccc2)C(c2ccncc2)N1c1nc2ccccc2s1 (racemic)
moderate

----------
# assay text: Cytotoxicity against human Chang cells by MTT assay
# Type: toxicity, cell-based
quantity name: log10 IC50 (log10 of the value in nM)
On a log10 scale: recorded IC50, unit nM.

COc1ccc(N2C(=O)[C@@H](OC)[C@H]2c2ccc(F)cc2)cc1 (relative stereo)    3.88

# query: log10 IC50 of entry O=C1C(Oc2ccccc2)C(c2ccc(Cl)cc2)N1c1nc2ccccc2s1 (racemic)
2.36

// query: COc1ccc([C@@H]2[C@H](Oc3ccccc3)C(=O)N2c2ccc(OC)cc2)cc1 (relative stereo)
2.80

// query: COc1ccc(N2C(=O)[C@@H](OC)[C@H]2c2ccc(C)cc2)cc1 (relative stereo)
3.59

// query: COc1ccc(N2C(=O)[C@@H](Oc3ccccc3)[C@H]2c2ccc(F)cc2)cc1 (relative stereo)
2.87

// query: COc1ccc(N2C(=O)[C@@H](Oc3ccccc3)[C@H]2c2ccccc2)cc1 (relative stereo)
3.45

// query: COc1ccc(N2C(=O)[C@@H](Oc3ccccc3)[C@H]2c2ccccc2[N+](=O)[O-])cc1
3.57

// query: CC[C@]1(O)C[C@H]2CN(CCc3c([nH]c4ccccc34)[C@@](C(=O)OC)(c3cc4c(cc3OC)N(C=O)[C@H]3[C@@](O)(C(=O)OC)[C@H](OC(C)=O)[C@]5(CC)C=CCN6CC[C@]43[C@@H]65)C2)C1 [VINCRISTINE]
1.00

// provenance: ChEMBL document CHEMBL3870355
